Target: SsbA (SaSsbA), single-stranded DNA-binding protein (Staphylococcus aureus, UniProt A0A0D1JHQ1)
Construct: recombinant His-tagged SaSsbA (167 aa, pET21b); aa 105–167 not observed in the crystal structure
Experiment: crystal structure ([…] Å) and intrinsic fluorescence quenching titration
Readout name: pKd
Numbers only, as −log10 of the molar value.

Noted for O=c1[nH]cc(F)c(=O)[nH]1 [5-FU, 5-fluorouracil] : its pKd reads 4.25

====

Target: SsbA (SaSsbA), single-stranded DNA-binding protein (Staphylococcus aureus, UniProt A0A0D1JHQ1, R18A)
Construct: recombinant His-tagged SaSsbA R18A (pET21b)
Sequence (A0A0D1JHQ1 1-167 R18A): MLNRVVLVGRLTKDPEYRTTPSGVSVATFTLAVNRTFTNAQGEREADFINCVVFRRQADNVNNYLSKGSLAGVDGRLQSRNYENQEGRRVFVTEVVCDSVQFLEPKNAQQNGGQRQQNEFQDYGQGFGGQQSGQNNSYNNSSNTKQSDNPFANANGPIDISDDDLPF
Test: intrinsic fluorescence quenching titration
Readout name: Kd (µM)
One number for each entry, in µM.

Noted for O=c1[nH]cc(F)c(=O)[nH]1 : its Kd reads 498

Value source: paper PMC10573954
